test: Animal test: pharmacokinetics in fasted rats; format: in vivo; conditions: male, Sprague-Dawley, rat, plasma; rats under fasting state; dose equal to 10 mg/kg lurasidone HCl
Counter-ions that a name gives are not always drawn.
READOUT_TYPE: Cmax (ng/mL)
Report as a plain number; the unit ng/mL is understood.

stdin: Report Cmax for O=C1[C@@H]2[C@H]3CC[C@H](C3)[C@@H]2C(=O)N1C[C@@H]1CCCC[C@H]1CN1CCN(c2nsc3ccccc23)CC1 [Lurasidone HCl]
stdout: 32

* * *

assay: Animal test: pharmacokinetics in fasted rats; type: in vivo; conditions: male, Sprague-Dawley, rat, plasma; rats under fasting state; dose equal to 10 mg/kg lurasidone HCl
Counter-ions that a name gives are not always drawn.
READOUT_TYPE: AUC(0-inf) (ng·h/mL)
Lab book: enter the figure in ng·h/mL, no units written.

stdin: Query AUC(0-inf) for O=C1[C@@H]2[C@H]3CC[C@H](C3)[C@@H]2C(=O)N1C[C@@H]1CCCC[C@H]1CN1CCN(c2nsc3ccccc23)CC1 [Lurasidone HCl]
stdout: 102
